study.target: Protein farnesyltransferase (Homo sapiens, UniProt P49354+P49356)
test: Inhibition of Farnesyltransferase
parameter: IC50 (nM)
Answers are plain numbers, in nM.

query: Find the measured IC50: item CSCC[C@H](NC(=O)[C@H](Cc1c[nH]c2ccccc12)NC(=O)[C@@H](NC(=O)[C@@H](N)CS)C(C)C)C(=O)O , target or system Protein farnesyltransferase (Homo sapiens, UniProt P49354+P49356).
result: 525

* * *

study.target: Protein farnesyltransferase (Bos taurus, UniProt P29702+P49355)
test: Inhibition of bovine Farnesyltransferase in vitro.
I'd appreciate it if you marked entries yes (1) when IC50 is lower than 8 nM and no (0) when it is not.

Cc1cc(N(Cc2cnc(C)n2Cc2ccc(C#N)cc2)C(=O)C2CC2)ccc1S(=O)(=O)c1ccccc1	no (0)

query: Could you please tell me whether IC50 recorded for O=C(O)c1cccc(Oc2ccc(N(Cc3c[nH]cn3)Cc3c[nH]cn3)cc2)c1 is less than 8 nM?
result: yes (1)

query: Now consider N#Cc1ccc(Cn2cncc2CNc2ccc(Oc3ccccc3)cc2)cc1 and answer again.
result: no (0)

query: Now consider CCCCN(Cc1cncn1Cc1ccc(C#N)cc1)c1ccc(Oc2ccccc2)cc1 and answer again.
result: no (0)

query: Now consider O=C(O)c1cccc(Oc2cccc(N(Cc3cnc[nH]3)Cc3cnc[nH]3)c2)c1 and answer again.
result: no (0)

query: Now consider N#Cc1ccc(Cn2cncc2CNc2ccc(S(=O)(=O)c3ccccc3)cc2)cc1 and answer again.
result: yes (1)

query: Now consider Cc1ncc(CNc2ccc(S(=O)(=O)c3ccccc3)cc2)n1Cc1ccc(C#N)cc1 and answer again.
result: no (0)

query: Now consider Cc1cc(NCc2cncn2Cc2ccc(C#N)cc2)ccc1S(=O)(=O)c1ccccc1 and answer again.
result: yes (1)

query: Now consider N#Cc1ccc(Cn2cncc2CNc2ccc(C(=O)c3ccccc3)cc2)cc1 and answer again.
result: yes (1)

query: Now consider CCCCN(Cc1cnc[nH]1)c1ccc(Oc2ccccc2)cc1 and answer again.
result: no (0)

query: Now consider CCCCN(Cc1cncn1Cc1ccc(C#N)cc1)c1ccc(Sc2ccccc2)cc1 and answer again.
result: no (0)

query: Now consider Cc1cc(NCc2cnc(C)n2Cc2ccc(C#N)cc2)ccc1S(=O)(=O)c1ccccc1 and answer again.
result: yes (1)

query: Now consider c1ccc(Oc2ccc(NCc3cnc[nH]3)cc2)cc1 and answer again.
result: no (0)

query: Now consider CCCCN(Cc1cn(Cc2ccc(C#N)cc2)cn1)c1ccc(Oc2ccccc2)cc1 and answer again.
result: no (0)

query: Now consider O=[N+]([O-])c1ccc(CN(Cc2cnc[nH]2)c2ccc(Oc3ccccc3)cc2)cc1 and answer again.
result: no (0)

query: Now consider O=[N+]([O-])c1ccc(CN(Cc2c[nH]cn2)c2cccc(Oc3ccccc3)c2)cc1 and answer again.
result: no (0)

query: Now consider N[C@H](CS)CNc1ccc(Oc2cccc(C(=O)O)c2)cc1 and answer again.
result: yes (1)

query: Now consider Cc1ncc(CN(Cc2ccc(C#N)cc2)c2ccc(S(=O)(=O)c3ccccc3)cc2)n1Cc1ccc(C#N)cc1 and answer again.
result: no (0)

query: Now consider N[C@@H](CS)CNc1cccc(Oc2cccc(C(=O)O)c2)c1 and answer again.
result: yes (1)
